System: DeltatarO mutant
method: S. aureus survival, RN4220 and DeltatarO strains – OD600, teichoic acid synthesis inhibitors, primary screen (AID 463173)
protocol conditions: S. aureus RN4220 wild type/DeltatarO growth, OD600, 18 h, screened at 18.75 µg/mL (by protocol)
Among all 52,000 compounds or so, about 4,300 (8.3%) were called active. Rule as the data show it: active = survival mostly below about 52% (no sharp cut-off); inactive = mostly above about 56%. What follows is part of a selection rich in actives, with near analogues and random picks from the rest.
Possible outcomes: 1 (yes) for active, 0 (no) for inactive

1) CCOC(=O)N1CCC(NC(=O)c2cnn(-c3ccc(C)cc3C)c2C2CCN(C(=O)OC(C)(C)C)CC2)CC1 | 0 (no)
2) Cc1ccc2oc(C(=O)Nc3c(C(=O)c4ccc(C)c(F)c4)oc4ccccc34)cc(=O)c2c1 | 0 (no)
3) Cc1cn2c(=O)cc(COc3ccc(NC(=O)c4cccc(F)c4)cc3)nc2s1 | 0 (no)
4) COc1ccc(-c2nc3ccccc3o2)cc1NC(=O)COc1ccc(C(C)(C)C)cc1 | 1 (yes)
5) CCc1ccc(C2=CC(c3cccc(C)c3)n3c(nc4ccccc43)N2)cc1 (centres undefined) | 0 (no)
6) COc1ccc(-c2nc3ccccc3o2)cc1NC(=O)COc1c(C)cc(Cl)cc1Cl | 0 (no)
7) Cc1ccc(S(=O)(=O)NC2CCCCC2)c2nsnc12 | 0 (no)
8) Cc1c(Cl)cccc1-n1ncc(C(=O)NC2CCCCC2)c1C1CCN(C(=O)OC(C)(C)C)CC1 | 0 (no)
9) Cc1ccc(-n2ncc(C(=O)NCCN3CCOCC3)c2C2CCN(C(=O)OC(C)(C)C)CC2)c(C)c1 | 1 (yes)

* * *

Test system: DeltatarO mutant
method: S. aureus survival, RN4220 and DeltatarO strains – OD600, teichoic acid synthesis inhibitors, primary screen (AID 463173)
protocol conditions: S. aureus RN4220 wild type/DeltatarO growth, OD600, 18 h, screened at 18.75 µg/mL (by protocol)
Screen size: about 52,000 compounds; about 4,300 (8.3%) were called active. Rule as the data show it: active = survival mostly below about 52% (no sharp cut-off); inactive = mostly above about 56%. This excerpt belongs to a sample that is enriched for actives.
Possible outcomes: class 1 = active, class 0 = inactive

1) Oc1c(C(c2ccccc2)N2CCC3(CC2)OCCO3)sc2nc(-c3ccco3)nn12 (centres undefined) | class 0
2) Cc1ccc(C(c2sc3nc(-c4ccco4)nn3c2O)N2CCN(Cc3ccccc3)CC2)cc1 (centres undefined) | class 0
3) Oc1c(C(c2ccc(Cl)cc2)N2CCC3(CC2)OCCO3)sc2nc(-c3ccco3)nn12 (centres undefined) | class 1
4) Cc1ccc2cc(CN(Cc3cccnc3)C(=O)c3cccnc3)c(=O)[nH]c2c1 | class 0
5) O=C(Nc1ccc(Cl)cc1)c1cc2nc(-c3ccc4c(c3)OCO4)cc(C(F)(F)F)n2n1 | class 0
6) CCc1ccc(-n2nc(C)c3c(C)cc(=O)n(CC(=O)Nc4cc(Cl)ccc4OC)c32)cc1 | class 1
7) CC(C)c1ccc(NC(=O)C(C)N(c2ccccc2)S(C)(=O)=O)cc1 (centres undefined) | class 0
8) Oc1c(C(c2ccccc2)N2CCN(Cc3ccccc3)CC2)sc2nc(-c3ccco3)nn12 (centres undefined) | class 1
9) Cc1nc2cccnc2n1C1CCN(C(=O)Nc2ccc(Cl)cc2)CC1 | class 0

* * *

Test system: DeltatarO mutant
method: S. aureus survival, RN4220 and DeltatarO strains – OD600, teichoic acid synthesis inhibitors, primary screen (AID 463173)
protocol conditions: S. aureus RN4220 wild type/DeltatarO growth, OD600, 18 h, stronger effect = lower value, screened at 18.75 µg/mL (by protocol)
In all, about 52,000 compounds went through this assay and about 4,300 (8.3%) were called active. The sample holds actives, similar compounds and a random draw of the others, so the mix is not that of the screen.
survival reference
measured parameter: survival (%)

1. Cc1ccc(NC(=O)c2c(C(=O)Nc3ccccc3)sc3nc(C)cc(=O)n23)cc1 | 59
2. O=C(COCc1cc(-c2ccc(F)cc2)on1)Nc1cc(Cl)cc(Cl)c1 | 144
3. CCc1ccccc1NC(=O)COCc1cc(-c2ccco2)on1 | 55
4. O=C(Cn1cc(SCc2c(F)cccc2Cl)c2ccccc21)N1CCCC1 | 74
5. O=C(COCc1cc(-c2ccc(F)cc2)on1)Nc1cc(Cl)ccc1O | 74
6. Cc1sc2ncn(CC(=O)N3CCN(c4ccc(F)cc4)CC3)c(=O)c2c1S(=O)(=O)N1CCC(C)CC1 | 75
7. COC(=O)c1ccc2c(=O)n(CCCCCC(=O)N3CCN(c4ccc(Cl)cc4)CC3)c(=O)[nH]c2c1 | 116
8. Cc1ccc(C)c(NC(=O)CCCn2nc(C)c3sc4ccccc4c3c2=O)c1 | 85
9. COc1cccc(NC(=O)/C(C#N)=C\c2cn(Cc3ccc(Cl)cc3)c3ccccc23)c1 | 77
10. CCOC(=O)c1cc(C)n(CC2CCC(C(=O)Nc3ccc(C)c(F)c3)CC2)c1C (stereo not given) | 64

* * *

survival reference
Tested on: DeltatarO mutant
method: S. aureus survival, RN4220 and DeltatarO strains – OD600, teichoic acid synthesis inhibitors, primary screen (AID 463173)
protocol conditions: S. aureus RN4220 wild type/DeltatarO growth, OD600, 18 h, stronger effect = lower value, screened at 18.75 µg/mL (by protocol)
The whole screen tested about 52,000 compounds, of which about 4,300 (8.3%) were called active. The list comes from a sample in which actives are over-represented; it also holds close analogues and randomly drawn compounds.
measured parameter: survival (%)

1) CCn1c(CNC(=O)C23CC4CC(CC(C4)C2)C3)nnc1SCC(=O)Nc1ccc(F)cc1 | 71
2) COc1ccc(NC(=O)Cn2c(SCc3ccc(F)cc3)nc3cccnc32)cc1OC | 74
3) CC(C)Cn1cc(NC(=O)NCc2ccccc2)c2ccccc2c1=O | 74
4) Cc1ccc(N2CCN(C(=O)Cn3ncc4c([nH]c5ccc(C)cc54)c3=O)CC2)c(C)c1 | 94
5) CCCCn1c(CNC(=O)C23CC4CC(CC(C4)C2)C3)nnc1SCC(=O)Nc1ccccc1 | 54
6) COc1cccc(CC(=O)Nc2ccc(-c3nc4ccccc4s3)cc2)c1 | 0
7) CCOC(=O)Cc1ccc(NC(=O)NCc2cccn2Cc2ccccc2)cc1 | -4
8) Cc1ccc(OCC(=O)Nc2cccc(-c3nc4ccccc4s3)c2)cc1 | 47
9) O=C(NCc1ccccc1)C1CCN(S(=O)(=O)Cc2ccccc2)CC1 | 98
10) CCOc1ccc(-c2nonc2NC(=O)c2ccc(C)cc2)cc1OCC | 100
11) CN1CCN(C(=O)C(=O)Nc2c3c(nn2-c2ccc(F)cc2)CSC3)CC1 | 72
12) COc1ccc(OCC(=O)Nc2ccc(O)c(-c3nc4ccccc4s3)c2)cc1 | 43
13) O=C(Cn1cnc2onc(-c3ccc(F)cc3)c2c1=O)N1CCN(c2ccccc2F)CC1 | 76
14) Cc1ccc(NC(=O)c2c(C)oc3ccc(O)c(CN4CCCC4)c23)c(C)c1 | 67
15) CCOc1ccccc1C(=O)Nc1cccc(-c2nc3ccccc3s2)c1 | 41
16) CCc1nc2ccc(C(=O)N3CCN(c4cccc(OC)c4)CC3)cc2nc1CC | 83
17) CCOC(=O)c1cccc(NC(=O)NCc2cccn2Cc2ccccc2)c1 | 119
18) COc1cccc(CC(=O)Nc2ccc(-c3nc4ccccc4s3)cc2Cl)c1 | 69
19) Cc1ccccc1-n1c(SCC(=O)N(C(C)C)C(C)C)nnc1-c1cccnc1 | 99
20) COc1ccc(/C=C/C(=O)Nc2nc(-c3cccs3)ns2)cc1OC | 48
21) O=C(Nc1ccc(Cl)cc1F)c1cc(S(=O)(=O)NCc2ccc3c(c2)OCO3)ccc1F | 77
22) Cc1ccc(-c2nc(NC(=O)CSc3nc(C)nc4sc5c(c34)CCCC5)ns2)cc1 | 53
23) CN1CCN(C(=O)C(=O)Nc2c3c(nn2-c2ccc(Cl)cc2)CSC3)CC1 | 72
24) COc1ccccc1N1CCN(C(=O)CCn2cnc3onc(-c4ccc(F)cc4)c3c2=O)CC1 | 66
25) CCCCNC(=O)CSc1nc2nc(C)c(Cc3ccccc3C)c(C)n2n1 | 39
26) Cc1nc(SCC(N)=O)c2c3c(sc2n1)CCCC3 | 80
27) CCOc1ccc(NC(=O)NCc2cccn2Cc2ccccc2)cc1 | 72
28) O=C(COc1ccc(Cl)cc1)Nc1ccc(-c2nc3ccccc3s2)c(O)c1 | 68
29) CC1CCCCC1NC(=O)CN1CCC(NC(=O)c2cccc(F)c2)CC1 (configuration not stated) | 85
30) CCS(=O)(=O)N1CCC(C(=O)NCCC(C)C)CC1 | 87
31) O=C(CCn1cnc2onc(-c3ccc(F)cc3)c2c1=O)N1CCN(c2ccc(F)cc2)CC1 | 77
32) Cc1nc(SCC(=O)OC(C)(C)C)c2c3c(sc2n1)CCCC3 | 7
33) COc1ccc(OCC(=O)Nc2cccc(-c3nc4ccccc4s3)c2C)cc1 | 106
34) O=C(CCn1cnc2onc(-c3ccc(F)cc3)c2c1=O)N1CCN(c2ccccc2F)CC1 | -4
35) CCOc1ccc(-c2nonc2NC(=O)c2oc3cc(C)ccc3c2C)cc1OCC | 87
36) COc1ccc(Cl)cc1NC(=O)Cn1cc(S(=O)(=O)Cc2cccc(Cl)c2)c2ccccc21 | 83
37) CCCNC(=O)CSc1nc2nc(C)c(Cc3ccccc3Cl)c(C)n2n1 | 60
38) Cc1cc(C)cc(NC(=O)CSc2nccn2C2CCCC2)c1 | 94
39) COc1ccc(NC(=O)c2cc(S(=O)(=O)N3CCCCCC3)cn2C)c(OC)c1 | 80
40) Cc1ccccc1Cc1c(C)nc2nc(SCC(=O)N(C)c3ccccc3)nn2c1C | 78
41) Cc1ccccc1Cc1c(C)nc2nc(SCC(=O)NC(C)c3ccccc3)nn2c1C (configuration not stated) | 57
42) O=C(CCn1cnc2onc(-c3ccc(F)cc3)c2c1=O)N1CCN(c2ccccc2)CC1 | 60
